Target: T1, recombinant human PACAP/VIP R-2 receptor (human)
T1 chain: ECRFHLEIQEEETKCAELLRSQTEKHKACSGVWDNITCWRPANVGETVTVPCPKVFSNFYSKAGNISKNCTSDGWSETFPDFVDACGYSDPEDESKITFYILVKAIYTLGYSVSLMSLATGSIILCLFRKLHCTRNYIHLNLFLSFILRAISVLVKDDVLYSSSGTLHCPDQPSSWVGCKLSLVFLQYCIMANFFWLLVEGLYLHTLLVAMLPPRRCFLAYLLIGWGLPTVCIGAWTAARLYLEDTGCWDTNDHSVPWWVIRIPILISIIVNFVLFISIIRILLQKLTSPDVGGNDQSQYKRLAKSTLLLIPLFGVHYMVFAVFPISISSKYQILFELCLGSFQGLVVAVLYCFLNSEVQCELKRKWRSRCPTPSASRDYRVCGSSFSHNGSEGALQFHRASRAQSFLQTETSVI
Assay: competitive displacement of 125I-VIP (44 pM) on intact CHL cells expressing the receptor
Where no end group is shown, it is not given here.
measured_metric: pIC50
API: returns pIC50 as number; meaning -log10 of concentration in mol/L.

Reported pIC50 of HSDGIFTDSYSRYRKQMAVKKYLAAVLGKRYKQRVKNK (ligand, ends and bridges not checked) [PACAP-38 (pituitary adenylate cyclase activating polypeptide, 38-amino acid peptide)] : 8.74
